- assayDetails: in vitro
readoutType: CC50

Query :: Any idea what CC50 was measured for Cn1cc(-c2cc(-c3cc(Cl)c(F)c(OCc4ccccc4Cl)c3)c(=O)n(-c3cccnc3)c2)c(=O)[nH]c1=O ?
Result :: > 32 µM

----------
- system: SARS-CoV-2 M^pro (Severe acute respiratory syndrome coronavirus 2, UniProt P0DTD1)
- assayDetails: biochemical
- Format: biochemical
- settings: Table 4
pIC50: −log10 of the molar value.
# key: entry, value: pIC50

Reference set (3 entries):
>>> measurement("Cn1ccnc1COc1cc(Cl)cc(-c2cc(-c3ccccc3C#N)cn(-c3cccnc3)c2=O)c1")
"~6.71"
>>> measurement("COc1ccc(-c2cc(-c3cccc(Cl)c3)c(=O)n(-c3cccnc3)c2)c(C#N)n1")
"4.00 to 5.00"
>>> measurement("O=c1c(-c2cc(Cl)cc(OCC3CC3)c2)cc(-c2ccc(F)cc2F)cn1-c1cccnc1")
"~5.00"

Now consider the entry below.
Query :: # get_value(readout='pIC50', item= N#Cc1cccc(-c2cc(-c3c[nH]c(=O)[nH]c3=O)cn(-c3cccnc3)c2=O)c1 )
Result :: ~5.00

The measured values listed here are drawn from patent US20250312345A1.
